Tested on: NCI-H838
Experiment: relative viability (nuclei count vs DMSO), 5 days (fraction); higher = more cells survive
Details: first compound 15.81 µM
ENDPOINT_LABEL: relative viability

>>> value_reported("O=C(O)CCCCC(CCSCc1ccccc1)SCc1ccccc1 (centres undefined) [CPI-613] + CC1(C)CCC(c2ccc(Cl)cc2)=C(CN2CCN(c3ccc(C(=O)NS(=O)(=O)c4ccc(N[C@H](CCN5CCOCC5)CSc5ccccc5)c(S(=O)(=O)C(F)(F)F)c4)cc3)CC2)C1 [Navitoclax] (partner 0.5 µM)")
1.01
>>> value_reported("O=C(O)CCCCC(CCSCc1ccccc1)SCc1ccccc1 (centres undefined) [CPI-613] + CC(=O)Nc1cccc(-n2c(=O)n(C3CC3)c(=O)c3c(Nc4ccc(I)cc4F)n(C)c(=O)c(C)c32)c1 [Trametinib] (partner 0.02 µM)")
0.461
>>> value_reported("O=C(O)CCCCC(CCSCc1ccccc1)SCc1ccccc1 (centres undefined) [CPI-613] + Cc1cc(Nc2cc(N3CCN(C)CC3)nc(Sc3ccc(NC(=O)C4CC4)cc3)n2)n[nH]1 [Tozasertib] (partner 0.1 µM)")
0.252
>>> value_reported("O=C(O)CCCCC(CCSCc1ccccc1)SCc1ccccc1 (centres undefined) [CPI-613] + Cc1nc(Nc2ncc(C(=O)Nc3c(C)cccc3Cl)s2)cc(N2CCN(CCO)CC2)n1 [Dasatinib] (partner 0.075 µM)")
0.237

* * *

Tested on: RERF-LC-KJ
Experiment: relative viability (nuclei count vs DMSO), 5 days (fraction); higher = more cells survive
Conditions: first compound 0.253 µM
ENDPOINT_LABEL: relative viability

>>> value_reported("O=c1[nH]c2ccccc2n1C1CCN(CCCC(c2ccc(F)cc2)c2ccc(F)cc2)CC1 [Pimozide] + Cc1cc(Nc2cc(N3CCN(C)CC3)nc(Sc3ccc(NC(=O)C4CC4)cc3)n2)n[nH]1 [Tozasertib] (partner 0.1 µM)")
0.447
>>> value_reported("Cc1cnc(-c2cnc(NCCNc3ccc(C#N)cn3)nc2-c2ccc(Cl)cc2Cl)[nH]1 + CC(C)C[C@H](NC(=O)[C@H](Cc1ccccc1)NC(=O)c1cnccn1)B(O)O [Bortezomib] (partner 0.002 µM)")
1
>>> value_reported("O=c1[nH]c2ccccc2n1C1CCN(CCCC(c2ccc(F)cc2)c2ccc(F)cc2)CC1 [Pimozide] + CS(=O)(=O)N1CCN(Cc2cc3nc(-c4cccc5[nH]ncc45)nc(N4CCOCC4)c3s2)CC1 [Pictilisib] (partner 1 µM)")
0.524
>>> value_reported("O=c1[nH]c2ccccc2n1C1CCN(CCCC(c2ccc(F)cc2)c2ccc(F)cc2)CC1 [Pimozide] + C[C@]1(O)C[C@@H](c2nc(-c3ccc4ccc(-c5ccccc5)nc4c3)c3c(N)nccn32)C1 [Linsitinib] (partner 1 µM)")
0.813

* * *

Listed molecules paired with reported relative viability
System: NCI-H2085
Assay: relative viability (nuclei count vs DMSO), 5 days (fraction); higher = more cells survive
Conditions: first compound 1.265 µM
ENDPOINT_LABEL: relative viability

>>> value_reported("Cc1sc2c(c1C)C(c1ccc(Cl)cc1)=N[C@@H](CC(=O)OC(C)(C)C)c1nnc(C)n1-2 [JQ1] + COc1cc2c(Oc3ccc(NC(=O)C4(C(=O)Nc5ccc(F)cc5)CC4)cc3F)ccnc2cc1OCCCN1CCOCC1 [Foretinib] (partner 0.25 µM)")
0.428
>>> value_reported("Cc1sc2c(c1C)C(c1ccc(Cl)cc1)=N[C@@H](CC(=O)OC(C)(C)C)c1nnc(C)n1-2 [JQ1] + CS(=O)(=O)CCNCc1ccc(-c2ccc3ncnc(Nc4ccc(OCc5cccc(F)c5)c(Cl)c4)c3c2)o1 [Lapatinib] (partner 2 µM)")
0.409
>>> value_reported("Cc1sc2c(c1C)C(c1ccc(Cl)cc1)=N[C@@H](CC(=O)OC(C)(C)C)c1nnc(C)n1-2 [JQ1] + Cc1cc(Nc2cc(N3CCN(C)CC3)nc(Sc3ccc(NC(=O)C4CC4)cc3)n2)n[nH]1 [Tozasertib] (partner 0.1 µM)")
0.414
>>> value_reported("Cc1sc2c(c1C)C(c1ccc(Cl)cc1)=N[C@@H](CC(=O)OC(C)(C)C)c1nnc(C)n1-2 [JQ1] + C[C@@H](Oc1cc(-c2cnn(C3CCNCC3)c2)cnc1N)c1c(Cl)ccc(F)c1Cl [Crizotinib] (partner 1 µM)")
0.458
